# TEST SUMMARY: Cmax in dog at 0.2 mg/kg, po by cassette assay
# Format: ADME, organism-based, Canis lupus familiaris
# Design: dose 0.2 mg/kg, route oral
# CONDITION INFO: in vivo
ENDPOINT NAME: Cmax (ng/mL)

Worked examples follow.
What value of Cmax has been reported for the following compound? COc1ccc(Oc2ccc3c(c2)C[C@@H](NC[C@H](O)c2ccc(Cl)nc2)CC3)cc1C(=O)O
64.4

What value of Cmax has been reported for the following compound? O=C(O)c1ccc(-c2ccc3c(c2)C[C@@H](NC[C@H](O)c2cccc(Cl)c2)CC3)cc1
97.4

What value of Cmax has been reported for the following compound? CN(C)c1cc(Oc2ccc3c(c2)C[C@@H](NC[C@H](O)c2cccc(Cl)c2)CC3)cc(C(=O)O)c1
189

What value of Cmax has been reported for the following compound? O=C(O)c1ccc(-c2ccc3c(c2)C[C@@H](NC[C@H](O)c2ccc(Cl)cc2)CC3)cc1
113

[P] O=C(O)COc1ccc2c(c1)C[C@@H](NC[C@H](O)c1cccc(Cl)c1)CC2
[Q] O=C(O)COc1ccc(-c2ccc3c(c2)C[C@@H](NC[C@H](O)c2cccc(Cl)c2)CC3)cc1
Between the entries labelled P and Q , which has a larger Cmax value on record? // output: label of the selected item
P
